# testSystem: RAF proto-oncogene serine/threonine-protein kinase [306-648,Y340D,Y341D] (Homo sapiens, UniProt P04049, Y340D/Y341D)
# Construct: 306-648
# Sequence (P04049 306-648 Y340D/Y341D): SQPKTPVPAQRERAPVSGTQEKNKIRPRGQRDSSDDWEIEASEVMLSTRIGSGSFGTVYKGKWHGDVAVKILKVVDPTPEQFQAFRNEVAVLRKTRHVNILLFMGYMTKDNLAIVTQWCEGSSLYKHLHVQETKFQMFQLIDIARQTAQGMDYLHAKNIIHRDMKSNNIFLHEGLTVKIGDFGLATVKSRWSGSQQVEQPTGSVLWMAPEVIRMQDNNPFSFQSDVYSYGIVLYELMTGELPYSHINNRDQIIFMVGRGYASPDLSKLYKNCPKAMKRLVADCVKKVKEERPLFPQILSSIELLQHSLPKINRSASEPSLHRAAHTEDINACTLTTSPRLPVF
# testDescription: Biochemical Assay for C-Raf (1)
measurementKind: IC50

Solved cases (2 shown):
inputSmiles | observedValue
Cc1ccc(NC(=O)c2ccnc(C(C)(C)C#N)c2)cc1-c1ccnc(-c2ccncc2)c1 | < 100 nM
Cc1ccc(NC(=O)c2ccnc(C(F)(F)F)c2)cc1-c1cccc(-c2ccnc(NC(=O)C3CC3)c2)c1 | < 100 nM

[ask] Fill blank: measured IC50 of the molecule `Cc1ccc(NC(=O)c2cnnc(C3CC3)c2)cc1-c1nccc(-c2ccnc(NC(=O)C3CC3)c2)n1` is ____.
[reply] < 100 nM

* * *

# testSystem: Serine/threonine-protein kinase B-raf [416-766,V600E] (Homo sapiens, UniProt P15056, V600E)
# Construct: 416-766
# Sequence (P15056 416-766 V600E): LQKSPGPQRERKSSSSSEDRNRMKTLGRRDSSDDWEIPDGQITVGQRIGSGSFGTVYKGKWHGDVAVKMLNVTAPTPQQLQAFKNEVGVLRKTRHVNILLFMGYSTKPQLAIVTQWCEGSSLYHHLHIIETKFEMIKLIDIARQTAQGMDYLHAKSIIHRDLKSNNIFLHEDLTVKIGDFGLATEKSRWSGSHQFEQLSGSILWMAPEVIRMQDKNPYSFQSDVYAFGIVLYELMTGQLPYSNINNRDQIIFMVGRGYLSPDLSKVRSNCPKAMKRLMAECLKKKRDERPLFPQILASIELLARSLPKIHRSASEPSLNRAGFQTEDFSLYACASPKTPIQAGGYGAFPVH
# testDescription: Biochemical Assay for B-Raf (V600E) (1)
measurementKind: IC50

[ask] Fill blank: measured IC50 of the compound `Cc1ccc(NC(=O)c2ccnc(C(F)(F)F)c2)cc1-c1cc(-c2ccnc(N)c2)n(C)c(=O)c1` is ____.
[reply] < 100 nM

[ask] Fill blank: measured IC50 of the compound `Cc1ccc(NC(=O)c2ccnc(C(F)(F)F)c2)cc1-c1cccc(-c2ccnc(NC(=O)C3CC3)c2)c1` is ____.
[reply] < 100 nM

These entries and their values trace back to BindingDB's records for patent US12319655.
